# reported EC50; entries follow
target_or_system: human farnesoid X receptor (Homo sapiens, UniProt Q96RI1)
Construct: CMX-farnesoid X receptor (full length human farnesoid X receptor); expressed in transfected cells; host or cells: CV-1 African Green Monkey Kidney cells
Sequence (Q96RI1 1-472 isoform Q96RI1-2): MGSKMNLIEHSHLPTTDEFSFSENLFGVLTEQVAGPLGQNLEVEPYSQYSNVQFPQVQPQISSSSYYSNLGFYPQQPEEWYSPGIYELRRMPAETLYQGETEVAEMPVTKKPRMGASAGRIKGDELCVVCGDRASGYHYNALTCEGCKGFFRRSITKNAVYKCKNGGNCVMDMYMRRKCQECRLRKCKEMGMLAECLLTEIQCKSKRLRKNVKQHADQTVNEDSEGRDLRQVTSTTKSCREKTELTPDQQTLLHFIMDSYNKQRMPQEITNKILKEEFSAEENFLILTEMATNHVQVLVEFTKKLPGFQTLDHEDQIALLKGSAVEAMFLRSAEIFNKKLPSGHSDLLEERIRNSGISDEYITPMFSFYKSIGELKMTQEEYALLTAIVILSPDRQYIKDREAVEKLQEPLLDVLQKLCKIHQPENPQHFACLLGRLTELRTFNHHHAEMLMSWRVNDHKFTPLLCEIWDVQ
Sequence (P19793 whole entry partner): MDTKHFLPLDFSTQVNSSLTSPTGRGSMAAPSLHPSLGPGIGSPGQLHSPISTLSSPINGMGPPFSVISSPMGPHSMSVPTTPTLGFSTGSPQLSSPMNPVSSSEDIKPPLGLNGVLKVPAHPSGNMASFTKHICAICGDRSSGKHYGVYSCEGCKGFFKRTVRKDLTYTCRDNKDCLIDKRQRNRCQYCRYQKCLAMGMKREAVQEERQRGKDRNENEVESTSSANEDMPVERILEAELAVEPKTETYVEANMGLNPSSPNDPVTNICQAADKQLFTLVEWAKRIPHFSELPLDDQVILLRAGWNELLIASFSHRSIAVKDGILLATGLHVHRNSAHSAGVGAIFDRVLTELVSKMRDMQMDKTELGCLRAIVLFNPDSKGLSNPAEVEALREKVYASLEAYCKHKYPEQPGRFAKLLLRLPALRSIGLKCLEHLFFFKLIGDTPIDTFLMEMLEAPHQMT
method: FXR in vitro assays (farnesoid X receptor/ECREx7 co-transfection assay, TR-FRET assay), Table I
Assay type: cell-based
condition_details: agonist activity, one or more of the in vitro assays; read-out: EC50
result_type: EC50

| compound | target_or_system | result |
| --- | --- | --- |
| CC(C)OC(=O)C1=CN(C(=O)c2cccc(CN3CCCCCCC3)c2)CC(C)(C)c2c1[nH]c1ccccc21 | human farnesoid X receptor (Homo sapiens, UniProt Q96RI1) | 100 to 1000 nM |
| CC(C)OC(=O)C1=CN(C(=O)NC2CCCNC2)CC(C)(C)c2c1[nH]c1ccccc21 (centres unmarked) | human farnesoid X receptor (Homo sapiens, UniProt Q96RI1) | 1000 to 10000 nM |
| CCN(CC)C1CCN(C(=O)N2C=C(C(=O)OC(C)C)c3[nH]c4ccccc4c3C(C)(C)C2)CC1 | human farnesoid X receptor (Homo sapiens, UniProt Q96RI1) | 1000 to 10000 nM |
| CCN1CCN(C(=O)N2C=C(C(=O)OC(C)C)c3[nH]c4cc(F)ccc4c3C(C)(C)C2)CC1 | human farnesoid X receptor (Homo sapiens, UniProt Q96RI1) | 10 to 100 nM |
| CC(C)OC(=O)C1=CN(C(=O)N2CCC[C@@H](CN(C)C)C2)CC(C)(C)c2c1[nH]c1ccccc21 | human farnesoid X receptor (Homo sapiens, UniProt Q96RI1) | 1000 to 10000 nM |
| CC(CO)OC(=O)C1=CN(C(=O)c2ccc(F)c(F)c2)CC(C)(C)c2c1[nH]c1ccccc21 (centres unmarked) | human farnesoid X receptor (Homo sapiens, UniProt Q96RI1) | 10 to 100 nM |
| CC(C)OC(=O)C1=CN(C(=O)N2CCC[C@H](CN(C)C)C2)CC(C)(C)c2c1[nH]c1ccccc21 | human farnesoid X receptor (Homo sapiens, UniProt Q96RI1) | 1000 to 10000 nM |
| CC(C)OC(=O)C1=CN(C(=O)c2ccc(-n3cccn3)cc2)CC(C)(C)c2c1[nH]c1ccccc21 | human farnesoid X receptor (Homo sapiens, UniProt Q96RI1) | 10 to 100 nM |
| CC(C)OC(=O)C1=CN(C(=O)c2ccc(F)c(Br)c2)CC(C)(C)c2c1[nH]c1ccccc21 | human farnesoid X receptor (Homo sapiens, UniProt Q96RI1) | 10 to 100 nM |
| CC(C)OC(=O)C1=CN(C(=O)c2cccc(CN3CCN(S(=O)(=O)c4ccc(F)cc4)CC3)c2)CC(C)(C)c2c1[nH]c1ccccc21 | human farnesoid X receptor (Homo sapiens, UniProt Q96RI1) | 100 to 1000 nM |
| Cc1cc(C(=O)N2C=C(C(=O)OC(C)C)c3[nH]c4ccccc4c3C(C)(C)C2)no1 | human farnesoid X receptor (Homo sapiens, UniProt Q96RI1) | 100 to 1000 nM |
